# Tested on: wheat germ agglutinin (Triticum aestivum), Alexa647-labelled
# test-protocol: wheat germ agglutinin binders on compound microarrays, profiling panel, artefact control for SMM control-protein annotation, biochemical, small-molecule microarray, 635/667 nm fluorescence (AID 1140);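 note: score merges 667 nm feature emission with signal to noise over triplicate slides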
# assay-context: WGA-A647 binding, 635 nm fluorescence, higher = more signal
Measured composite z-score, listed per entry for reference.
Could you keep your reply to the number by itself?

compound: Cc1ccc(S[C@]2(C(=O)NC3CC3)CC(=O)N(C3Cc4ccccc4C3)[C@@H]2c2ccc(CO)cc2I)cc1
test-value: -0.409
--
compound: C=CCC(OC(C)=O)[C@@H]1[C@@H](N(Cc2ccc(-c3ccccc3)cc2)C(=O)Cc2ccc(OC)cc2)c2cc(OCCCO)ccc2N1C(=O)c1ccc2ccccc2c1 (some centres not stated)
test-value: 0.266
--
compound: C=C(C(=O)CC[C@H](OC(=O)c1ccccc1-c1ccccc1C(=O)O)c1ccc(OCCO)cc1)C(C)C
test-value: 0.189
--
compound: COC(=O)[C@H](Cc1ccccc1)N1CC(C)(OC)O[C@@H](Cc2ccccc2)[C@H]1/C=C/C1CC1 (some centres not stated)
test-value: 0.808
--
compound: CC[C@H]1C2=C3C(CC[C@H]4C(OCc5ccc(F)cc5C(F)(F)F)OC[C@](C)([C@@H]34)N(C(=O)OC(C)(C)C)C2)C(COC(C)=O)C1COC(C)=O (some centres not stated)
test-value: 0.509

In: Look up and report measured composite z-score (wheat germ agglutinin (Triticum aestivum), Alexa647-labelled) for the following compound: "[N-]=[N+]=NCc1ccccc1C[C@@]1(C(N)=O)N=C(c2ccc(OCCCO)cc2)O[C@@H]1c1ccccc1N=[N+]=[N-]"
Out: 0.68

In: Look up and report measured composite z-score (wheat germ agglutinin (Triticum aestivum), Alexa647-labelled) for the following compound: "C#CCN(C(=O)OC(C)(C)C)[C@H](CO)c1ccccc1"
Out: -0.174

* * *

# test-system: Albumin (Bos taurus)
# test-protocol: bovine serum albumin binders on microarray, profiling panel, artefact control for SMM control protein annotation, biochemical, small-molecule microarray, Alexa647 label, 635/667 nm fluorescence (AID 1118);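 note: score merges 667 nm emission intensity and signal-to-noise per printed compound spot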
# assay-context: BSA-A647 binding, fluorescence 635 nm, higher = more signal
readout-kind: composite z-score
Could you keep your reply to the number by itself?

Examples with their reported composite z-score follow.
compound: COc1cc(CO)cc(I)c1O[C@H]1C=C(C(=O)NCCO)C[C@@H](N(CCN2CCOCC2)C(=O)C2CCCO2)[C@@H]1O (stereo not given in full)
test-system: Albumin (Bos taurus)
composite z-score: -0.184
--
compound: C=C(CCCC)C(=O)CC[C@H](OC(=O)c1ccccc1-c1ccccc1C(=O)O)c1cccc(OCCO)c1
test-system: Albumin (Bos taurus)
composite z-score: 0.314
--
compound: CC(CO)N1C(=O)[C@@H]2[C@H]3C(=O)OCC=C[C@H]3OC23C=CCN(c2ccc4ccccc4c2)C(=O)[C@@H]13 (stereo not given in full)
test-system: Albumin (Bos taurus)
composite z-score: 0.876
--
compound: COc1ccc(C(O)C2C=CC3C(=O)N(c4ccccc4)C(=O)C3N2Nc2ccccc2F)c2ccccc12 (stereo not given)
test-system: Albumin (Bos taurus)
composite z-score: 0.968
--
compound: CC[C@@H](O[Si](C#C[Si](C(C)C)(C(C)C)C(C)C)(C(C)C)C(C)C)c1cn([C@H](C)c2ccccc2)nn1
test-system: Albumin (Bos taurus)
composite z-score: -0.605
--
compound: CCOC(=O)C[C@H]1[C@H](OC(=O)c2ccc(-c3ccccc3)cc2)[C@@H](NC(=O)c2ccc(-c3ccccc3)cc2)c2cc(OCCCO)ccc2N1C(=O)c1ccccc1
test-system: Albumin (Bos taurus)
composite z-score: 0.771
--
compound: CN(C)CCCCCCNC(=O)[C@@H]1C[C@@H]2C(=O)N[C@@H](CCCC[N+](C)(C)C)C(=O)N2[C@@H]1c1cccc(OCCO)c1
test-system: Albumin (Bos taurus)
composite z-score: 0.792
--
compound: C=C(C)C1CN([C@H](CO)c2ccccc2)C(=O)/C1=C\c1ccccc1 (stereo not given in full)
test-system: Albumin (Bos taurus)
composite z-score: 0.252

In: Give the reported composite z-score for this compound. "COc1ccc([Si](C)(C)[C@@H]2[C@@H](CC(=O)N3CCC[C@H]3CO)O[C@]3(C(=O)N(Cc4cccc(N5C(=O)c6cccc7cccc5c67)c4)c4ccccc43)[C@H]2C)cc1"
Out: 0.601

In: Give the reported composite z-score for this compound. "COc1ccc([Si](C)(C)[C@@H]2[C@@H](CC(=O)N3Cc4ccccc4C[C@H]3CO)O[C@]3(C(=O)N(Cc4ccc(I)cc4)c4ccccc43)[C@H]2C)cc1"
Out: -0.145

In: Give the reported composite z-score for this compound. "O=C/C=C/c1ccc(-c2ccccc2)cc1"
Out: -1.04

In: Give the reported composite z-score for this compound. "C=C(CC1([C@@H](NP(=O)(c2ccccc2)c2ccccc2)[C@H]2C[C@@H]2CCCC)CC1)c1cccc(OC)c1"
Out: 0.615

In: Give the reported composite z-score for this compound. COc1cc2c(cc1O)C(C)N(Cc1sc3ccccc3c1Cl)CC2 (stereo not given)
Out: 1.01

In: Give the reported composite z-score for this compound. "C[N+](C)(C)CCCC[C@@H]1NC(=O)[C@H]2C[C@@H](C(=O)NCCCCCN)[C@@H](c3ccc(O)cc3)N2C1=O"
Out: 0.567

In: Give the reported composite z-score for this compound. "COc1cccc(C)c1NC(=O)O[C@H]1[C@H](OC(=O)Nc2ccccc2)[C@@H](OC(=O)Nc2ccccc2)[C@@H](OC)O[C@@H]1CO"
Out: 0.541

* * *

Measured composite z-score, listed per entry for reference.
# System: Inhibin beta A chain (activin A)
# test-protocol: INHBA (activin A) binders on microarrays, primary screen, biochemical, small-molecule microarray, 635 nm fluorescence scan (AID 1107);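 note: mouse activin A protein probed at 4.33 µg/mL on printed slides; score merges bound-protein fluorescence near 667 nm with spot signal-to-noise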
# assay-context: small-molecule microarray binding, higher = more signal
Could you keep your reply to the number by itself?

Examples with their reported composite z-score follow.
compound: O=C1NC(=O)C2C1C=CC(C(O)c1ccc(F)cc1)N2Nc1ccc(Cl)cc1Cl (stereo unspecified)
test-value: 0.924
--
compound: COCCCNC(=O)[C@@]1(Cc2ccccc2I)c2ccccc2C(=O)N(Cc2ccccc2C(F)(F)F)[C@H]1c1ccc(CO)cc1
test-value: -0.601
--
compound: C=CCOC(=O)[C@H]1[C@@H]2C(=O)O[C@@H](c3ccccc3)[C@@H](c3ccccc3)N2[C@@H](c2ccc(OCCOC(=O)[C@@H]3C[C@@H]4C(=O)N[C@@H](Cc5ccccc5)C(=O)N4[C@@H]3c3ccc(O)cc3)cc2)[C@]12C(=O)Nc1ccc(I)cc12
test-value: 0.684

In: Give the reported composite z-score for this compound. COc1ccc(C(O)C2C=CC3C(=O)N(C)C(=O)C3N2Nc2ccccc2)cc1 (stereo unspecified)
Out: 0.979

In: Give the reported composite z-score for this compound. "C=CCOC(=O)[C@@H]1[C@H]2C(=O)O[C@H](c3ccccc3)[C@H](c3ccccc3)N2[C@H](c2ccc(OCCOC(=O)[C@@H]3C[C@@H]4C(=O)N[C@@H](CC(C)C)C(=O)N4[C@@H]3c3ccc(O)cc3)cc2)[C@@]12C(=O)Nc1ccc(I)cc12"
Out: 0.79

In: Give the reported composite z-score for this compound. "COC(=O)[C@@]1(Cc2ccc(F)cc2)[C@H]2c3cc(C(=O)N(C)C)n(Cc4ccc(C(F)(F)F)nc4)c3C[C@H]2CN1C(=O)c1ccccc1"
Out: 0.876

* * *

# test-protocol: CREB reporter modulators without forskolin, primary screen, cell-based, PC12, CRE-LacZ reporter, unstimulated (AID 1145)
# assay-context: no forskolin, luminescence, 4.5 h, higher = more signal, called active from +8 up or from −8 down
Measured z-score, listed per entry for reference.
Could you keep your reply to the number by itself?

Examples with their reported z-score follow.
compound: O=C1O[C@H](c2ccccc2)[C@H](c2ccccc2)N2[C@H]1[C@@H](C(=O)N1CCN(c3ncccn3)CC1)[C@]1(C(=O)Nc3ccc(C#CC4(O)CCCCCC4)cc31)[C@H]2c1ccc(O)cc1
test-value: -0.258
//
compound: CCCNC(=O)[C@@]1(Sc2ccc(C)cc2)CC(=O)N(Cc2cc(C(F)(F)F)cc(C(F)(F)F)c2)[C@@H]1c1ccc(CO)cc1
test-value: -0.554
//
compound: COc1cc(Cc2cc3c(c(CCc4ccccc4)n2)[Si](C(C)C)(C(C)C)O[C@H]3c2ccccc2)cc(OC)c1OC
test-value: 0.875
//
compound: CCCCN1CC=CC23O[C@@H]4/C=C\CCC(C)OC(=O)C4[C@H]2C(=O)N(CCO)[C@@H]3C1=O (some centres not stated)
test-value: -0.627
//
compound: CC(=O)NCCCC[C@@H]1NC(=O)[C@H]2C[C@@H](C(=O)O)[C@@H](c3cccc(OCCO)c3)N2C1=O
test-value: 1.94
//
compound: CO[C@H]1O[C@H](CO)[C@@H](OC(=O)Nc2ccccc2)[C@@H]2OC(=O)[C@@H](Cc3ccccc3)C/C=C/C[C@H](Cc3ccccc3)C(=O)O[C@@H]12
test-value: -0.403

For the next question, use this compound.
In: Give the reported z-score for this compound. "C=C(COC)/C(=C/C[C@@H](OC(=O)c1ccncc1)c1ccccc1OCCO)c1cnc2ccccc2c1"
Out: 18.2
